# assay_system: T1, 4-1BB-ECD-hFc (human, UniProt Q07011 24-186)
# T1 construct: extracellular domain; Coated on the ELISA plate; also called 4-1BB-hFc; 4-1BB-hFc蛋白; not shown: human Fc (hFc)
# protocol_text: ELISA, 4-1BB-ECD-hFc coated
recorded_endpoint: binding result

| binder | recorded_endpoint | value_reported |
| --- | --- | --- |
| 抗人4-1BB杂交瘤抗体3A11 (antibody, V domains shown, Mouse hybridoma antibody purified on Protein A) VH: EVQLVETGGGLVQPNGSLKLSCAASGFIFNTNAMNWVRQAPGKGLEWIARIRSKINNYATYYADSVKDRFTISRDDSQSMLYLQMNNLKTEDTGMYYCNWDEAYWGQGTLVTVSA VL: DIQMTQSSSYLSVSLGGRVTVTCKASDHINNWLAWYQQKPGNAPRLLIFGATSLETGVPSRFSGSASGNDYTLTITSLQTEDVATYYCQQYWSIPYTFGGGTKLEIK | binding result | binds |
| 抗人4-1BB杂交瘤抗体8E9 (antibody, V domains shown, Mouse hybridoma antibody purified on Protein A) VH: QAQLQQSGPELVRPGTSVKMSCKTSGYSFTGYWMHWMKQRPGQGLEWIGMIDPSNSDTRLNQKFKDKATLNVDKSSNTAYMDFSSLTSEDSAVYYCARWRYYGYDGIAYWGQGTLVTVSA VL: DIVMTQSPSSLTVTAGEKVTVSCKSSQSLLNSGNQRNYLTWYQQKPGQPPKLLIYWASTRESGVPDHFTGSGSGTDFTLTISSVQAEDLAVYYCQNDYTYPFTFGGGTKLEIK | binding result | binds |
